Molecular target: human EHMT2 913-1193 (Homo sapiens, UniProt Q96KQ7)
Construct: recombinant purified human EHMT2 913-1193, Viva; purchased Viva
Sequence (Q96KQ7 913-1193): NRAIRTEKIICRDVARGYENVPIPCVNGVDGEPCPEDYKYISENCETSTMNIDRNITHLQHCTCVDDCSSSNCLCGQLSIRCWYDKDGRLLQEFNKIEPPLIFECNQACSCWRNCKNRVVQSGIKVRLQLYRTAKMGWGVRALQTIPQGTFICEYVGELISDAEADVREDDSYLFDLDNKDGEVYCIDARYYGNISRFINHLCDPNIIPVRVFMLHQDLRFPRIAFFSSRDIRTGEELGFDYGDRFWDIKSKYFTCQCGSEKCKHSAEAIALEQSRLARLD
Assay: EHMT2 enzyme assay on histone peptide substrate (EHMT2 PEP)
Format: biochemical
Settings: Table III; read-out: EHMT2 PEP (IC50 μM)
Answer each item with its documented IC50.

Provide one value: measured IC50 of CCOc1ccc(Nc2nccc(NC)n2)cc1OCCCN1CCCC1
> 10 µM

Tell me measured IC50 for CNc1nc(Nc2ccc(OC)c(OCCCN3CCCC3)c2)ncc1C#N please.
> 10 µM

Return value of IC50 for input CNc1cc(C)nc(Nc2ccc(OC)c(O[C@H]3C[C@H](CN(C)C)C3)c2)n1 , no commentary.
> 10 µM

Identify the reported IC50 for the following entry. CNc1ccnc(Nc2ccc(OC)c(OC[C@@H](O)CN3CCCC3)c2)n1 [Compound 300]
0.1 to 1 µM

Give the reported value of IC50 for this record: CNc1ccnc(Nc2ccc(OC)c(OCCCN3CCC(C(F)(F)F)C3)c2)n1 (stereo not drawn)
> 10 µM

Input CNc1nc(Nc2ccc(OC)c(OCCCN3CCCC3)c2)nc2ccccc12 , output reported IC50.
< 0.1 µM
